- assay: Population pharmacokinetics in plasma, Study 1 and Study 2
- Assay type: in vivo, human
- conditionDescription: human, plasma, im, 0.25 mg/kg, Group 2B: 3 days IM twice daily 0.25 mg/kg, teenagers, n=8; plasma; mean and SD; AUC0-12 at steady state multiplied by 2; read-out: AUC or AUC0-24,ss

- compound: "Cc1c(CCO)sc[n+]1CCCCCCCCCCCC[n+]1csc(CCO)c1C [SAR97276A]"
  AUC(0-t) (ng·h/mL): 1400

* * *

- assay: Population pharmacokinetics in plasma, Study 1 and Study 2
- Format: in vivo, human
- conditionDescription: human, plasma, im, 0.25 mg/kg, Group 2B: 3 days IM twice daily 0.25 mg/kg, teenagers, n=8; plasma; mean and SD; read-out: Cmax or Cmax,ss
valueKind: Cmax (ng/mL)

- compound: "Cc1c(CCO)sc[n+]1CCCCCCCCCCCC[n+]1csc(CCO)c1C [SAR97276A]"
  valueUnit: "ng/mL"
  reportedMeasurement: 477

* * *

- assay: Population pharmacokinetics in plasma, Study 1 and Study 2
- Type: in vivo, human
- conditionDescription: human, plasma, im, 0.18 mg/kg, Study 1 Adults IM (1A + 1B) 0.18 mg/kg, n=64; plasma; mean and SD; read-out: Cmax or Cmax,ss

- compound: "Cc1c(CCO)sc[n+]1CCCCCCCCCCCC[n+]1csc(CCO)c1C [SAR97276A]"
  Cmax: "355 ng/mL"

Cited source for all entries: paper PMC5418711
